# Tested on: primary human mesenchymal stem cells (hMSCs)
# protocol summary: Induction of chondrogenesis in hMSCs (nodule area, Rhodamine B / Nile Red)
# Type: cell-based
# condition details: TGF-β3 as positive control, read-out: Max. Activity as % TGF-β3 activity
reported endpoint: Emax (%)
All answers are understood in %, so give the number only.

Would you please look over these solved cases?
CN(C)Cc1cncc(-c2ccc3[nH]nc(-c4nc5c(-c6cccs6)nccc5[nH]4)c3n2)c1 [Compound 349]: 75
CCC(=O)Nc1cncc(-c2ccc3[nH]nc(-c4nc5c(-c6cccc(F)c6)nccc5[nH]4)c3n2)c1 [Compound 1]: 95
FC1(F)CCN(Cc2cncc(-c3ccc4[nH]nc(-c5nc6c(-c7ccsc7)nccc6[nH]5)c4n3)c2)C1 [Compound 306]: 53

Consider the record given below.
Please list Emax recorded for the molecule O=C(Nc1cncc(-c2ccc3[nH]nc(-c4nc5c(-c6ccc(F)cc6)nccc5[nH]4)c3n2)c1)C1CCC1 [Compound 49] 45
